The values you see were collected from paper PMC8949075.

ASSAY NOTES: Episkin skin permeation test (finite dose, OECD 428)
Assay type: in vitro ADME, human
PARTICULARS: human; 24 h exposure, 10 mg/cm^2 finite dose, 2% formulation; read-out: recovery in the epidermis (of the applied dose)
MEASURED QUANTITY: recovery at 24 h, 2 % in formulation (%)
Please respond with the number in % and leave the unit unwritten.

Guide cases for recovery at 24 h, 2 % in formulation, answers given:
COc1ccc(C(=O)CC(=O)c2ccc(C(C)(C)C)cc2)cc1: 16
CCOC(=O)CN1C(=O)/C(=C/C=C/c2ccc(OC)cc2)N(CC(=O)OCC)C1=O: 3
CCOC(=O)CN1C(=O)/C(=C/c2ccc(OC)cc2)N(CC(=O)OCC)C1=O: 7
Cc1ccc(C=C2C(=O)C3(C)CCC2C3(C)C)cc1 (centres unmarked) [4MBC, 3-(4-methylbenzylidene) camphor, reference compound]: 28

Okay, next one:
Exercise: For the molecule COc1ccc(C(=O)c2ccccc2)c(O)c1 , give its reported recovery at 24 h, 2 % in formulation.
Solution: 18

###

This listing pairs molecules with measured absorbed amount detected in the RF (of the applied dose).
Tested on: Episkin^TM reconstructed human epidermis
ASSAY NOTES: Episkin skin permeation test (finite dose, OECD 428)
Type: in vitro ADME
PARTICULARS: 24 h exposure, 10 mg/cm^2 finite dose, 2% formulation
Please respond with the number in % and leave the unit unwritten.

Cc1ccc(C=C2C(=O)C3(C)CCC2C3(C)C)cc1 (centres unmarked) [4MBC, 3-(4-methylbenzylidene) camphor, reference compound]: 3
COc1ccc(C(=O)c2ccccc2)c(O)c1 [BP3, benzophenone-3]: 12
CCOC(=O)CN1C(=O)/C(=C/c2ccc(OC)cc2)N(CC(=O)OCC)C1=O [JH10]: 48

Okay, next one:
Exercise: For the molecule CCOC(=O)CN1C(=O)/C(=C/C=C/c2ccc(OC)cc2)N(CC(=O)OCC)C1=O [JH3] , give its reported absorbed amount detected in the RF (of the applied dose).
Solution: 1

###

ASSAY NOTES: CHO-K1 cytotoxicity assay (MTT)
Type: cell-based
PARTICULARS: Chinese hamster, CHO-K1 cells, concentrations ranging from 1 to 10 µM
MEASURED QUANTITY: viability at 24 h

Exercise: For the compound Cc1ccc(C=C2C(=O)C3(C)CCC2C3(C)C)cc1 (stereo not shown) [4MBC, 3-(4-methylbenzylidene) camphor, reference compound] , give its reported viability at 24 h.
Solution: > 75%
